This collection of values is drawn from patent US20190031618A1.

# target or test system: Human CB1R (Cannabinoid receptor 1) (Homo sapiens)
# procedure summary: CB-1 in vitro cAMP (HTRF) assay
# Format: cell-based
# measurement parameters: HEK cells, cAMP HTRF, 250 nM forskolin; mean where tested more than once; read-out: CB1 HEK_cAMP EC50
pEC50: −log10 of the molar value.
I would appreciate it if you labelled entries 1 when pEC50 is 8 or higher, otherwise -1.

- compound: "O=C(O)CS(=O)(=O)N1CCC(n2c(C3CC3)nc3ccc(C(c4ccc(Cl)cc4)c4ccc(Cl)cc4)cc32)CC1"
  discrete label: -1

API: above_or_equal(metric=pEC50, cutoff=8) for item O=C(O)c1ccc(OCCn2c(C3CC3)nc3ccc(C(c4ccc(Cl)cc4)c4ccc(Cl)cc4)cc32)cc1
-1

API: above_or_equal(metric=pEC50, cutoff=8) for item COc1cc(S(=O)(=O)N2CCC(n3c(C4CC4)nc4ccc(C(c5ccc(Cl)cc5)c5ccc(Cl)cc5)cc43)CC2)ccc1C(=O)O
1

API: above_or_equal(metric=pEC50, cutoff=8) for item OC(c1ccc(Cl)cc1)(c1ccc2nc(C3CC3)n(C3CCc4ccccc4C3)c2c1)c1nccs1 (centres unmarked)
-1

API: above_or_equal(metric=pEC50, cutoff=8) for item CCc1nc2ccc(C(c3ccc(Cl)cc3)c3nccs3)cc2n1CCc1cccc(Cl)c1 (centres unmarked)
-1

API: above_or_equal(metric=pEC50, cutoff=8) for item CCOC(=O)c1nc2ccc(C(c3ccc(Cl)cc3)c3nccs3)cc2n1-c1cccc(Cl)c1 (centres unmarked)
-1

----------
# procedure summary: Mouse Fast PK/BBB: plasma and brain concentration
# Format: in vivo, Male C57bl/6j mice
# measurement parameters: male, C57bl/6j, mouse, plasma; mice, dose 30 mg/kg oral, 1 hr; read-out: Plasma Mean Conc. ± Std. Dev
endpoint name: concentration at 1 h (µg/mL)
Write it as a number; the unit µg/mL goes unstated.

Below, each entry is followed by its recorded concentration at 1 h result.
- compound: "O=C(O)c1cccc(CN2CCC(n3c(C4CC4)nc4ccc(C(c5ccc(Cl)cc5)c5ccc(Cl)cc5)cc43)CC2)c1 [Example 148]"
  concentration at 1 h, µg/mL: 13.5
- compound: "O=C(O)c1cccc(CN2CCC(n3c(C4CC4)nc4ccc(C(c5ccc(Cl)cc5)c5ccc(Cl)cc5)cc43)CC2)n1 [Example 125]"
  concentration at 1 h, µg/mL: 4.49

Next item in the queue.
O=C(O)c1ccc(F)c(CN2CCC(n3c(C4CC4)nc4ccc(C(c5ccc(Cl)cc5)c5ccc(Cl)cc5)cc43)CC2)c1 [Example 92] yielded concentration at 1 h of 11.4

----------
# procedure summary: Mouse Fast PK/BBB: plasma and brain concentration
# Format: in vivo, Male C57bl/6j mice
# measurement parameters: male, C57bl/6j, mouse, plasma; mice, dose 30 mg/kg oral, 1 hr; read-out: Plasma Mean Conc. ± Std. Dev
endpoint name: concentration at 1 h

- test smiles: "O=C(O)c1cc(F)cc(CN2CCC(n3c(C4CC4)nc4ccc(C(c5ccc(Cl)cc5)c5ccc(Cl)cc5)cc43)CC2)c1"
  concentration at 1 h: "7190 ng/mL"
- test smiles: "O=C(O)c1ccc(CN2CCC(n3c(C4CC4)nc4ccc(C(c5ccc(Cl)cc5)c5ccc(Cl)cc5)cc43)CC2)o1"
  concentration at 1 h: "1370 ng/mL"
- test smiles: "O=C(O)c1ccc(CN2CCC(n3c(C4CC4)nc4ccc(C(c5ccc(Cl)cc5)c5ccc(Cl)cc5)cc43)CC2)nc1"
  concentration at 1 h: "2020 ng/mL"

O=C(O)c1ccc(S(=O)(=O)N2CCC(n3c(C4CC4)nc4ccc(C(c5ccc(Cl)cc5)c5ccc(Cl)cc5)cc43)CC2)o1 yielded concentration at 1 h of 81.9 ng/mL

----------
# concentration at 1 h per entry
# procedure summary: Mouse Fast PK/BBB: plasma and brain concentration
# Type: in vivo, Male C57bl/6j mice
# measurement parameters: male, C57bl/6j, mouse, brain, mice, dose 20 mg/kg oral, read-out: Brain Mean Conc. ± Std. Dev
Write it as a number; the unit ng/mL goes unstated.

Below, each entry is followed by its recorded concentration at 1 h result.
- molecule: "CCc1nc2ccc(C(c3ccc(Cl)cc3)c3ccc(Cl)cc3)cc2n1C1CCN(S(=O)(=O)C(F)(F)F)CC1"
  concentration at 1 h (ng/mL): 39.1
- molecule: "CCc1nc2ccc(C(c3ccc(Cl)cc3)c3nccs3)cc2n1C1CCN(S(=O)(=O)C(F)(F)F)CC1 (stereo not shown)"
  concentration at 1 h (ng/mL): 362
- molecule: "CCc1nc2ccc(C(c3ccc(Cl)cc3)c3ccc(Cl)cc3)cc2n1CC1CCN(S(=O)(=O)C(F)(F)F)CC1"
  concentration at 1 h (ng/mL): 33.8
- molecule: "O=S(=O)(N1CCC(Cn2c(C3CC3)nc3ccc(C(c4ccc(Cl)cc4)c4ccc(Cl)cc4)cc32)CC1)C(F)(F)F"
  concentration at 1 h (ng/mL): 22.9
- molecule: "O=S(=O)(N1CCC(n2c(C3CCC3)nc3ccc(C(c4ccc(Cl)cc4)c4ccc(Cl)cc4)cc32)CC1)C(F)(F)F"
  concentration at 1 h (ng/mL): 57.8
- molecule: "COc1ccc(C(c2ccc(OC)cc2)c2ccc3nc(C4CCC4)n(C4CCN(S(=O)(=O)C(F)(F)F)CC4)c3c2)cc1"
  concentration at 1 h (ng/mL): 122

Next item in the queue.
O=S(=O)(N1CCC(n2c(C3CC3)nc3ccc(C(c4ccc(Cl)cc4)c4ccc(Cl)cc4)cc32)CC1)C(F)(F)F yielded concentration at 1 h of 53.3

----------
# target or test system: Human CB2R (Cannabinoid receptor 2) (Homo sapiens)
# Sequence (P34972 whole entry): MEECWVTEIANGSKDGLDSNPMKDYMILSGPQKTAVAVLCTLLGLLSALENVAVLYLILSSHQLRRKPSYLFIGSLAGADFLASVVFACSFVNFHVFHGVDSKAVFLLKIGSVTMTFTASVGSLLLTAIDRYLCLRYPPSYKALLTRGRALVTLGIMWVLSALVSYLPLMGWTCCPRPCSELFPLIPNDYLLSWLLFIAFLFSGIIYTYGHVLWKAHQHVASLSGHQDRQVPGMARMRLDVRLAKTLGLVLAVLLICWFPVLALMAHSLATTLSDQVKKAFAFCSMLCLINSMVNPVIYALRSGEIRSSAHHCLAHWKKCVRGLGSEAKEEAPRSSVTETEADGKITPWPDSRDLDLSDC
# procedure summary: CB-2 in vitro cAMP (HTRF) assay
# measurement parameters: HEK cells, cAMP HTRF, 250 nM forskolin; mean where tested more than once; read-out: CB2 HEK_cAMP EC50
# pEC50 per entry
// pEC50: -log10(molar conc.)

- compound: "O=C(O)c1cccc(NC2CCC(n3c(C4CC4)nc4ccc(C(c5ccc(Cl)cc5)c5ccc(Cl)cc5)cc43)CC2)c1 (stereo not drawn)"
  pEC50: 5.29

CCOC(=O)N1CCC(n2c(-c3ccc(Cl)cc3Cl)nc3ccc(C(c4ccc(Cl)cc4)c4nccs4)cc32)CC1 (stereo not drawn) yielded pEC50 of 5.31

----------
# pEC50 per entry
# target or test system: Human CB1R (Cannabinoid receptor 1) (Homo sapiens, UniProt P21554)
# Sequence (P21554 whole entry): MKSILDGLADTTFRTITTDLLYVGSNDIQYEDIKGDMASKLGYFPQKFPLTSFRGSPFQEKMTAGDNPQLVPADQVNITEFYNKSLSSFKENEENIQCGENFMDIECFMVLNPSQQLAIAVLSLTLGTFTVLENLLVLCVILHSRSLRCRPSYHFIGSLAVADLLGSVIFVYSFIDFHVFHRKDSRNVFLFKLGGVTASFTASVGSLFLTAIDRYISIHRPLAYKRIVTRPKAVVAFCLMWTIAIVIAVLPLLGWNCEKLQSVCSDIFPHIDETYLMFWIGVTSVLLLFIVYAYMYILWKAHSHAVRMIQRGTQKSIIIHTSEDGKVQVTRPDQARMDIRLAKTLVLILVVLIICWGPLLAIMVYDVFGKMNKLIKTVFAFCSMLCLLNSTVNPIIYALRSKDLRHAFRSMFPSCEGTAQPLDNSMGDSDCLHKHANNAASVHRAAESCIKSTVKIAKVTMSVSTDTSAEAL
# procedure summary: CB-1 in vitro cAMP (HTRF) assay
# Format: cell-based
# measurement parameters: HEK cells, cAMP HTRF, 250 nM forskolin; mean where tested more than once; read-out: CB1 HEK_cAMP EC50
// pEC50: -log10(molar conc.)

Below, each entry is followed by its recorded pEC50 result.
- compound: "Oc1ccc(-n2c(C3CC3)nc3ccc(C(c4ccc(Cl)cc4)c4ccc(Cl)cc4)cc32)cc1"
  recorded value: 6.78
- compound: "CC(C(O)c1ccccc1)n1c(C2CC2)nc2ccc(C(c3ccc(Cl)cc3)c3ccc(Cl)cc3)cc21 (centres unmarked)"
  recorded value: 6.24
- compound: "O=C(NCc1ccccc1)N1CCC(n2c(C3CC3)nc3ccc(C(c4ccc(Cl)cc4)c4ccc(Cl)cc4)cc32)CC1"
  recorded value: 7.45
- compound: "CCOC(=O)N1CCC(n2c(C3CCOCC3)nc3ccc(C(c4ccc(Cl)cc4)c4nccs4)cc32)CC1 (centres unmarked)"
  recorded value: 6.21
- compound: "NC(=O)c1ccc(CN2CCC(n3c(C4CC4)nc4ccc(C(c5ccc(Cl)cc5)c5ccc(Cl)cc5)cc43)CC2)o1"
  recorded value: 8.10

Clc1ccc(C(c2ccc3nc(C4CC4)n(C4Cc5ccccc5C4)c3c2)c2nccs2)cc1 (centres unmarked) yielded pEC50 of 6.67

O=C(O)c1ccc(S(=O)(=O)N[C@H]2CC[C@@H](n3c(C4CC4)nc4ccc(C(c5ccc(Cl)cc5)c5ccc(Cl)cc5)cc43)CC2)cc1 yielded pEC50 of 7.04

O=S(=O)(N1CCC(n2c(C3CCC3)nc3ccc(C(c4ccc(Cl)cc4)c4ccc(Cl)cc4)cc32)CC1)C(F)(F)F yielded pEC50 of 8.16

CCOC(=O)N1CCC(n2c(C3CCCO3)nc3ccc(C(c4ccc(Cl)cc4)c4nccs4)cc32)CC1 (centres unmarked) yielded pEC50 of 6.42

CC(C)(C)c1nc2ccc(C(O)(c3ccc(Cl)cc3)c3ccc(Cl)cc3)cc2n1C1CCN(S(=O)(=O)C(F)(F)F)CC1 yielded pEC50 of 5.54

Clc1ccc(C(c2ccc(Cl)cc2)c2ccc3ncn(C4Cc5ccccc5C4)c3c2)cc1 yielded pEC50 of 6.04

O=C(NC1CCCC1)N1CCC(n2c(C3CC3)nc3ccc(C(c4ccc(Cl)cc4)c4ccc(Cl)cc4)cc32)CC1 yielded pEC50 of 7.15

CCOC(=O)COc1ccc(-n2c(C3CC3)nc3ccc(C(c4ccc(Cl)cc4)c4ccc(Cl)cc4)cc32)cc1 yielded pEC50 of 8.36

NC(=O)CCC(=O)N1CCC(n2c(C3CC3)nc3ccc(C(c4ccc(Cl)cc4)c4ccc(Cl)cc4)cc32)CC1 yielded pEC50 of 7.47
